All figures here come from ChEMBL document CHEMBL1138126.

Assay: AUC(0-tz) in rat at 5 mg/kg, iv
Assay type: ADME, organism-based
Parameters: dose 5 mg/kg, route intravenous
Conditions: plasma
value type: AUC (ng·h/mL)
Write it as a number; the unit ng·h/mL goes unstated.

Req: Tell me the measured AUC of CN1CCN(CCC#CC(=O)Nc2cc3c(Nc4ccc(F)c(Cl)c4)ncnc3cn2)CC1 , please.
Resp: 703

* * *

Target: Platelet-derived growth factor receptor (Homo sapiens, UniProt P09619+P16234)
Test: Inhibition of PDGF receptor
pIC50: −log10 of the molar value.
value type: pIC50

Req: Tell me the measured pIC50 of CN1CCN(CCC#CC(=O)Nc2cc3c(Nc4ccc(F)c(Cl)c4)ncnc3cn2)CC1 , please.
Resp: < 4.30

* * *

Assay: Half life in monkey at 5 mg/kg, iv
Assay type: ADME, organism-based, Macaca mulatta
Set-up: dose 5 mg/kg, route intravenous
Conditions: rhesus monkey, in vivo
value type: half-life
Answer shape: numeric part, then the unit.

Req: Tell me the measured half-life of CN1CCN(CCC#CC(=O)Nc2cc3c(Nc4ccc(F)c(Cl)c4)ncnc3cn2)CC1 , please.
Resp: 22.2 min

* * *

Target: Epidermal growth factor receptor (Homo sapiens, UniProt P00533)
Sequence (P00533 whole entry, the tested form may be a part): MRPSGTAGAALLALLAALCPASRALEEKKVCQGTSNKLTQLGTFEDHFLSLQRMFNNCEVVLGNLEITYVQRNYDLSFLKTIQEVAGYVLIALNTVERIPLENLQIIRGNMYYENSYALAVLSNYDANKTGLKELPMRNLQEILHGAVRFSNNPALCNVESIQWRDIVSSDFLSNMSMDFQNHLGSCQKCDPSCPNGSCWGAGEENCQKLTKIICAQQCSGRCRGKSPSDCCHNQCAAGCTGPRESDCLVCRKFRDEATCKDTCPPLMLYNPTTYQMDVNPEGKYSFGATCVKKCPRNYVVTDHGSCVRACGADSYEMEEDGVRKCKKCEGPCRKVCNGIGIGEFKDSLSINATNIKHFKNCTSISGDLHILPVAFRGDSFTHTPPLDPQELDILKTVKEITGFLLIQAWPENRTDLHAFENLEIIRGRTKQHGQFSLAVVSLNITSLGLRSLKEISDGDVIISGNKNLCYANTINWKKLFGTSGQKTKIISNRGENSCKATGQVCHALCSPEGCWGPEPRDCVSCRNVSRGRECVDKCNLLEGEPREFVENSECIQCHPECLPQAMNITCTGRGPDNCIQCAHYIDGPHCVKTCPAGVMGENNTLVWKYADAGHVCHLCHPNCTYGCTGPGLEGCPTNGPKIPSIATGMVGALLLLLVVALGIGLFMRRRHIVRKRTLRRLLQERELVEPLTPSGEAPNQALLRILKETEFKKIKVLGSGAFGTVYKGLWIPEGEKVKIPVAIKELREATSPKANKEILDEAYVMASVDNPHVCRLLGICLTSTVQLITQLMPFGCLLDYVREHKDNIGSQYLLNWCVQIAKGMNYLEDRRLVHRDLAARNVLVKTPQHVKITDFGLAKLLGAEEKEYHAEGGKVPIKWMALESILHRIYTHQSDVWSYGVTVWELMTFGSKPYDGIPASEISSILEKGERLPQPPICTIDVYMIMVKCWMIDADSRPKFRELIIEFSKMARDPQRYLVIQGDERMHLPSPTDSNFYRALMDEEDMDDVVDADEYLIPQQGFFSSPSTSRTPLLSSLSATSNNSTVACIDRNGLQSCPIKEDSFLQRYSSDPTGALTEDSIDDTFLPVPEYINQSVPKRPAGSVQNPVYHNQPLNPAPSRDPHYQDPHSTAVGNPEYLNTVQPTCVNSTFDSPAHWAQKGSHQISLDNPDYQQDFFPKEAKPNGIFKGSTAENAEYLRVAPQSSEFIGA
Assay: Inhibition of erbB1 fusion protein expressed in baculovirus by ELISA
value type: IC50 (nM)
Write it as a number; the unit nM goes unstated.

Guide cases for IC50, answers given:
Req: Tell me the measured IC50 of CCN(CC)CCC#CC(=O)Nc1ccc2ncnc(Nc3ccc(F)c(Cl)c3)c2c1 , please.
Resp: 1.8

Req: Tell me the measured IC50 of O=C(C#CCN1CCOCC1)Nc1ccc2ncnc(Nc3ccc(F)c(Cl)c3)c2c1 , please.
Resp: 86

Req: Tell me the measured IC50 of O=C(C#CCCN1CCCCC1)Nc1cc2c(Nc3ccc(F)c(Cl)c3)ncnc2cn1 , please.
Resp: 0.9

Req: Tell me the measured IC50 of O=C(C#CCCN1CCOCC1)Nc1cc2c(Nc3ccc(F)c(Br)c3)ncnc2cn1 , please.
Resp: 1.5

Kindly consider the entry below.
Req: Tell me the measured IC50 of O=C(C#CCCN1CCOCC1)Nc1ccc2ncnc(Nc3ccc(F)c(Cl)c3)c2c1 , please.
Resp: 1.7

* * *

Assay: Plasma clearance in monkey at 5 mg/kg, iv
Type: ADME, organism-based, Macaca mulatta
Set-up: dose 5 mg/kg, route intravenous
Conditions: rhesus monkey
value type: clearance (mL/min/kg)
Write it as a number; the unit mL/min/kg goes unstated.

Req: Tell me the measured clearance of CN1CCN(CCC#CC(=O)Nc2cc3c(Nc4ccc(F)c(Cl)c4)ncnc3cn2)CC1 , please.
Resp: 85.8

* * *

Experiment: Oral bioavailability in dog at 15 mg/kg
Format: ADME, organism-based, Canis lupus familiaris
Conditions: in vivo
value type: bioavailability (%)
Write it as a number; the unit % goes unstated.

Req: Tell me the measured bioavailability of CN1CCN(CCC#CC(=O)Nc2cc3c(Nc4ccc(F)c(Cl)c4)ncnc3cn2)CC1 , please.
Resp: 67.8

* * *

Target: Receptor tyrosine-protein kinase erbB-2 (Homo sapiens)
value type: pIC50
Keep in mind that pIC50 stands for -log10 of concentration in molar terms.

Req: What value of pIC50 on Receptor tyrosine-protein kinase erbB-2 (Homo sapiens) does CN1CCN(CCC#CC(=O)Nc2cc3c(Nc4ccc(F)c(Cl)c4)ncnc3cn2)CC1 have?
Resp: 9.10

* * *

Test: Volume of distribution in dog at 5 mg/kg, iv
Type: ADME, organism-based, Canis lupus familiaris
Design: dose 5 mg/kg, route intravenous
Details: in vivo, read-out: Vdss
value type: Vd (L/kg)
Write it as a number; the unit L/kg goes unstated.

Req: Tell me the measured Vd of CN1CCN(CCC#CC(=O)Nc2cc3c(Nc4ccc(F)c(Cl)c4)ncnc3cn2)CC1 , please.
Resp: 0.93

* * *

Assay: Half life in dog at 5 mg/kg, iv
Format: ADME, organism-based, Canis lupus familiaris
Set-up: dose 5 mg/kg, route intravenous
Conditions: in vivo
value type: half-life
Answer shape: numeric part, then the unit.

Req: Tell me the measured half-life of CN1CCN(CCC#CC(=O)Nc2cc3c(Nc4ccc(F)c(Cl)c4)ncnc3cn2)CC1 , please.
Resp: 1.86 h

* * *

Biological target: Epidermal growth factor receptor (Homo sapiens)
Assay: Inhibition of EGF stimulated human erbB1 autophosphorylation in NIH3T3 cells
Recorded log10 of IC50 for the following compounds
All values: log10 IC50 [nM].

Req: Tell me the measured log10 of IC50 of O=C(C#CCN1CCOCC1)Nc1ccc2ncnc(Nc3ccc(F)c(Cl)c3)c2c1 , please.
Resp: 1.49

Req: Tell me the measured log10 of IC50 of CCCCC#CC(=O)Nc1cc2c(Nc3ccc(F)c(Cl)c3)ncnc2cn1 , please.
Resp: 0.65

Req: Tell me the measured log10 of IC50 of CN1CCN(CCC#CC(=O)Nc2cc3c(Nc4ccc(F)c(Br)c4)ncnc3cn2)CC1 , please.
Resp: 0.43

Req: Tell me the measured log10 of IC50 of O=C(C#CCO)Nc1ccc2ncnc(Nc3ccc(F)c(Cl)c3)c2c1 , please.
Resp: 1.40

Req: Tell me the measured log10 of IC50 of CCN(CC)CCC#CC(=O)Nc1ccc2ncnc(Nc3ccc(F)c(Cl)c3)c2c1 , please.
Resp: 0.65

Req: Tell me the measured log10 of IC50 of CCCC#CC(=O)Nc1cc2c(Nc3ccc(F)c(Cl)c3)ncnc2cn1 , please.
Resp: 0.98

Req: Tell me the measured log10 of IC50 of CCN(CC)CC#CC(=O)Nc1ccc2ncnc(Nc3ccc(F)c(Cl)c3)c2c1 , please.
Resp: 0.83

Req: Tell me the measured log10 of IC50 of CCCCN(CC#CC(=O)Nc1cc2c(Nc3ccc(F)c(Cl)c3)ncnc2cn1)CCCC , please.
Resp: 1.69

***
Req: Tell me the measured log10 of IC50 of O=C(C#CCCN1CCOCC1)Nc1cc2c(Nc3ccc(F)c(Br)c3)ncnc2cn1 , please.
Resp: 0.65

Req: Tell me the measured log10 of IC50 of CC(C)N(CC#CC(=O)Nc1cc2c(Nc3ccc(F)c(Cl)c3)ncnc2cn1)C(C)C , please.
Resp: 1.86

* * *

Assay: AUC(0-tz) in rat at 15 mg/kg, po
Format: ADME, organism-based
Parameters: dose 15 mg/kg, route oral
Conditions: plasma
value type: AUC (ng·h/mL)
Write it as a number; the unit ng·h/mL goes unstated.

Req: Tell me the measured AUC of CN1CCN(CCC#CC(=O)Nc2cc3c(Nc4ccc(F)c(Cl)c4)ncnc3cn2)CC1 , please.
Resp: 240

* * *

Target: Receptor tyrosine-protein kinase erbB-2 (Homo sapiens, UniProt P04626)
Sequence (P04626 whole entry): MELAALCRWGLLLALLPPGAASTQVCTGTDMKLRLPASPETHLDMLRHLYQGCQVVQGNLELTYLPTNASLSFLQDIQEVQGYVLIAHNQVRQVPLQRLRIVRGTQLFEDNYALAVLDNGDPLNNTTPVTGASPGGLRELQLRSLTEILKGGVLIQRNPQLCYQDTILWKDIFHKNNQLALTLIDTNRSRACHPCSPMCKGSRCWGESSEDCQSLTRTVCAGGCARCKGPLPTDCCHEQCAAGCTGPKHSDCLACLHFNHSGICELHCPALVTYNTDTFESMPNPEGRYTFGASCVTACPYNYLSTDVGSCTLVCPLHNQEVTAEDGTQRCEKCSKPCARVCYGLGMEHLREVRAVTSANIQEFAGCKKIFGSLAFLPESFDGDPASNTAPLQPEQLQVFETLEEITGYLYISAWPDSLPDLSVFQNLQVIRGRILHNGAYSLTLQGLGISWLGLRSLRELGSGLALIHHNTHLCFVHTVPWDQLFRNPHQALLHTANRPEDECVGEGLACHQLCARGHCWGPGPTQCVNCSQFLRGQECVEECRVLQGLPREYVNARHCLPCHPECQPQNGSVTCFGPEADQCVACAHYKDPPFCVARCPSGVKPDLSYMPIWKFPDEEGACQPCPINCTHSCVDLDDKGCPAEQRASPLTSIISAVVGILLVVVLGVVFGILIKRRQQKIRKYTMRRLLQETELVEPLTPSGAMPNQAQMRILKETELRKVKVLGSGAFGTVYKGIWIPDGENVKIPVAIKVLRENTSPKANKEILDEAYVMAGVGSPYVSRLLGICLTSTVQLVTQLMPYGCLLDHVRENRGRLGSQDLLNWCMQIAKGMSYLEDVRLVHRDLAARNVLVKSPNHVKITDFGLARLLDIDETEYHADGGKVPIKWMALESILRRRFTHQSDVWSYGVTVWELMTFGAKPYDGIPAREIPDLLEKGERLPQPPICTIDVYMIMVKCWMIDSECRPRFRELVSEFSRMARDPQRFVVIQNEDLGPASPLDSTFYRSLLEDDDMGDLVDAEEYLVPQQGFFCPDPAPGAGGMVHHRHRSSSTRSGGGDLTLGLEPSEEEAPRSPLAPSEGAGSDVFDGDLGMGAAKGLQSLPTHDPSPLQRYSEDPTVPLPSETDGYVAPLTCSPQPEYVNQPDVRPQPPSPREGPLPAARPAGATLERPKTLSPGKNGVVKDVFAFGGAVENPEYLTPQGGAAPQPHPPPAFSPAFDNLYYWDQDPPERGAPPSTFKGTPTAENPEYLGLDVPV
Exam item: assign Criterion met to entries whose IC50 is below 20 nM and Criterion not met to entries at or above 20 nM. Note that a value of exactly 20 nM receives Criterion not met.

Req: IC50 strictly < 20 nM for this compound? CCCCC#CC(=O)Nc1cc2c(Nc3ccc(F)c(Cl)c3)ncnc2cn1
Resp: Criterion met

Req: IC50 strictly < 20 nM for this compound? CC#CC(=O)Nc1ccc2ncnc(Nc3cccc(Br)c3)c2c1
Resp: Criterion met

Req: IC50 strictly < 20 nM for this compound? CCCCN(CC#CC(=O)Nc1cc2c(Nc3ccc(F)c(Cl)c3)ncnc2cn1)CCCC
Resp: Criterion not met

Req: IC50 strictly < 20 nM for this compound? O=C(C#CCCN1CCOCC1)Nc1cc2c(Nc3ccc(F)c(Br)c3)ncnc2cn1
Resp: Criterion met

Next up:
Req: IC50 strictly < 20 nM for this compound? CCCCN(CC#CC(=O)Nc1ccc2ncnc(Nc3ccc(F)c(Cl)c3)c2c1)CCCC
Resp: Criterion not met

* * *

Heads up, these compounds all have pIC50 values measured for UniProt:P04626.
Keep in mind that pIC50 stands for -log10 of concentration in molar terms.

Req: What value of pIC50 on UniProt:P04626 does CCN(CC)CC#CC(=O)Nc1cc2c(Nc3ccc(F)c(Cl)c3)ncnc2cn1 have?
Resp: 6.22

Req: What value of pIC50 on UniProt:P04626 does O=C(C#CCO)Nc1ccc2ncnc(Nc3ccc(F)c(Cl)c3)c2c1 have?
Resp: 8.68

***
Req: What value of pIC50 on UniProt:P04626 does O=C(C#CCCN1CCCCC1)Nc1cc2c(Nc3ccc(F)c(Cl)c3)ncnc2cn1 have?
Resp: 8.68

Req: What value of pIC50 on UniProt:P04626 does O=C(C#CCN1CCOCC1)Nc1cc2c(Nc3ccc(F)c(Cl)c3)ncnc2cn1 have?
Resp: 7.59

* * *

Assay: Oral bioavailability in monkey at 30 mg/kg
Format: ADME, organism-based, Macaca mulatta
Settings: rhesus monkey, in vivo
value type: bioavailability (%)
Write it as a number; the unit % goes unstated.

Req: Tell me the measured bioavailability of CN1CCN(CCC#CC(=O)Nc2cc3c(Nc4ccc(F)c(Cl)c4)ncnc3cn2)CC1 , please.
Resp: 6.75
